Biological target: human thyroid receptor alpha ligand-binding domain (LBD) (Homo sapiens)
Sequence (P10827 163-410 isoform P10827-2 limits assumed, other chains not shown): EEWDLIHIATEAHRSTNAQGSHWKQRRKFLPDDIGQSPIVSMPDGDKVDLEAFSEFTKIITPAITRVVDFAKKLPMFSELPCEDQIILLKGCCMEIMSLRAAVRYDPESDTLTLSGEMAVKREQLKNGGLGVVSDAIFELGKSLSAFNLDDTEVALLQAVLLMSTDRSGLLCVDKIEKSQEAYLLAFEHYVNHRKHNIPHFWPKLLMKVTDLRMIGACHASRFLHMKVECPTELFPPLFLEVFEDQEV
Assay: TR-FRET thyroid receptor alpha coactivator assay (THR biochemical assay, Assay 1)
Conditions: Table 4, THR-alpha, read-out: Activity category Assay 1 (EC50, THR-alpha agonist activity)
pEC50: −log10 of the molar value.
Would you kindly list pEC50 for each of these compounds?

# lookup: CC(C)Cc1c[nH]c2ccc(Oc3c(Cl)cc(-n4nc(C#N)c(=O)[nH]c4=O)cc3Cl)cc12 on human thyroid receptor alpha ligand-binding domain (LBD) (Homo sapiens), pEC50 = > 7.30

Given the compound CC(c1ccccc1)c1c[nH]c2ccc(Oc3c(Cl)cc(-n4nc(C#N)c(=O)[nH]c4=O)cc3Cl)cc12 (stereo not drawn) and test system human thyroid receptor alpha ligand-binding domain (LBD) (Homo sapiens), the measured pEC50 is < 4.60

Hey, human thyroid receptor alpha ligand-binding domain (LBD) (Homo sapiens) data for N#Cc1nn(-c2cc(Cl)c(Oc3ccc4[nH]cc(CC5CC5)c4c3)c(Cl)c2)c(=O)[nH]c1=O : pEC50 came out at > 7.30

Hey, human thyroid receptor alpha ligand-binding domain (LBD) (Homo sapiens) data for CC(C)c1cc(Oc2c(Cl)cc(-c3nn(C)c(=O)[nH]c3=O)cc2Cl)n[nH]c1=O : pEC50 came out at 6.00 to 6.60

Log: human thyroid receptor alpha ligand-binding domain (LBD) (Homo sapiens), compound CCCc1c[nH]c2ccc(Oc3c(Cl)cc(-n4nc(C#N)c(=O)[nH]c4=O)cc3Cl)cc12 , pEC50 = > 7.30

Assay human thyroid receptor alpha ligand-binding domain (LBD) (Homo sapiens), sample CCCCCc1n[nH]c2ccc(Cc3c(C)cc(-n4nc(C#N)c(=O)[nH]c4=O)cc3C)cc12 , pEC50 read: > 7.30

human thyroid receptor alpha ligand-binding domain (LBD) (Homo sapiens) data for Nc1nn(-c2cc(Cl)c(Oc3cc(-c4ccc5ccccc5c4)c(=O)[nH]n3)c(Cl)c2)c(=O)[nH]c1=O ; its pEC50: 4.60 to 6.00

The reported human thyroid receptor alpha ligand-binding domain (LBD) (Homo sapiens) pEC50 of Nc1nn(-c2cc(Cl)c(Oc3cc(Cc4ccc(O)cn4)c(=O)[nH]n3)c(Cl)c2)c(=O)[nH]c1=O is 6.00 to 6.60

Summary: CSCc1nn(-c2cc(Cl)c(Oc3cc(C(C)C)c(=O)[nH]n3)c(Cl)c2)c(=O)[nH]c1=O , human thyroid receptor alpha ligand-binding domain (LBD) (Homo sapiens), pEC50 = 6.00 to 6.60

# value of pEC50, human thyroid receptor alpha ligand-binding domain (LBD) (Homo sapiens), item CC(c1ccccc1)c1cc(Oc2c(Cl)cc(-n3nc(N)c(=O)[nH]c3=O)cc2Cl)n[nH]c1=O (single isomer, unassigned) [Compound 163] = < 4.60

The reported pEC50 value, human thyroid receptor alpha ligand-binding domain (LBD) (Homo sapiens), for CC(C)c1cc(Oc2c(Cl)cc(-n3nc(N)c(=O)[nH]c3=O)c3c2CC3)n[nH]c1=O reads 4.60 to 6.00

The compound Nc1nn(-c2cc(Cl)c(Oc3n[nH]c(=O)cc3-c3ccccc3)c(Cl)c2)c(=O)[nH]c1=O , tested on human thyroid receptor alpha ligand-binding domain (LBD) (Homo sapiens), showed pEC50 of < 4.60

Item CCC(C)c1cc(Oc2c(Cl)cc(-n3nc(N)c(=O)[nH]c3=O)cc2Cl)n[nH]c1=O (stereo not drawn) [Compound 39-A] ; assay system human thyroid receptor alpha ligand-binding domain (LBD) (Homo sapiens); pEC50 reported as 6.00 to 6.60

Value sought: pEC50, system human thyroid receptor alpha ligand-binding domain (LBD) (Homo sapiens), item Nc1nn(-c2cc(Cl)c(Oc3n[nH]c(=O)cc3-c3ccn4nccc4c3)c(Cl)c2)c(=O)[nH]c1=O . Result: < 4.60

# pEC50 measured on human thyroid receptor alpha ligand-binding domain (LBD) (Homo sapiens) for item Nc1nn(-c2cc(Cl)c(Oc3cc(-c4cccc(F)c4)c(=O)[nH]n3)c(Cl)c2)c(=O)[nH]c1=O = 6.00 to 6.60
